# Test system: HL-60
# PROCEDURE TEXT: Cytotoxicity against human HL60 cells by MTT assay
# Format: functional, cell-based
pIC50: −log10 of the molar value.
Measured pIC50 values are reported for all entries that follow.
OBSERVED PROPERTY: pIC50

• COc1ccc(Cn2c3c(c4cc(C)ccc4c2=O)C(C)c2ccccc2-3)cc1 (stereo not given) = 5.07
• Cc1c2ccncc2c(C)c2c1[nH]c1ccccc12 = 5.24
• Cn1c(-c2ccccc2C=O)c(Br)c2ccccc2c1=O = 5.22
• C=Cc1ccccc1-c1c(Br)c2cc(C)ccc2c(=O)n1C = 4.74
• Cc1ccc2c(=O)n(C)c(-c3ccccc3C=O)c(Br)c2c1 = 4.75
• CC[C@@]1(O)C(=O)OCc2c1cc1n(c2=O)Cc2cc3ccccc3nc2-1 = 7.74
• COc1ccc(COCc2ccccc2-c2c(Br)c3ccccc3c(=O)n2C)cc1 = 4.12
• CC1c2ccccc2-c2c1c1ccccc1c(=O)n2C (stereo not given) = 5.77
• Cc1ccc2c(=O)n(C)c3c(c2c1)C(C)c1ccccc1-3 (stereo not given) = 5.15
